biological target: pERK1/2 (Thr202/Tyr204), NCI-1H358 (KRAS G12C) (Homo sapiens, UniProt P01116, G12C); construct: pERK1/2 HTRF read-out; test: Assay of intracellular pERK1/2 (Thr202/Tyr204) phosphorylation in NCI-H358 cells (KRAS G12C); assay type: cell-based; conditions: pERK1/2, 2 days, read-out: NCI-H358 (KRAS G12C) IC50
Sequence (P01116 1-188 isoform P01116-2 G12C): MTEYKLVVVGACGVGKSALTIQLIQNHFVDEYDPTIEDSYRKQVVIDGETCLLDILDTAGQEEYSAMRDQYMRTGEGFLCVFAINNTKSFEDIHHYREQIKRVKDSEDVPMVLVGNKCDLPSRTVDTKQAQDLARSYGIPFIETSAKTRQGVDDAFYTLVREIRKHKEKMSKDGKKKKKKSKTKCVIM
pIC50: −log10 of the molar value.
Readout: pIC50

Examples from the recorded data:
Cc1cc(N)cc(-c2nc3c4c(nc(OC[C@@]56CCCN5C[C@H](F)C6)nc4c2F)N(C(C)c2cccnn2)CCO3)c1C(F)(F)F (stereo partly drawn) [Compound 121] : < 7.00
Cc1c(F)c(N)cc(-c2nc3c4c(nc(OC[C@@]56CCCN5CC(=C(F)F)C6)nc4c2F)N(C(C)c2cccnc2N)CCO3)c1C(F)(F)F (stereo partly drawn) [Compound 243] : 9.70

// fetch pERK1/2 (Thr202/Tyr204), NCI-1H358 (KRAS G12C) (Homo sapiens, UniProt P01116, G12C) pIC50 for Cc1cc(N)cc(-c2nc3c4c(nc(OC[C@@H]5C[C@@H](F)CN5C)nc4c2F)N(C(C)c2cccnc2N)CCO3)c1C(F)(F)F (single isomer, unassigned) [Compound 81]
< 7.00

---

molecular target: pERK1/2 (Thr202/Tyr204), PANC-1 (KRAS G121D) (Homo sapiens, UniProt P01116, G12D); construct: pERK1/2 HTRF read-out; assay: Assay of intracellular pERK1/2 (Thr202/Tyr204) phosphorylation in PANC-1 cells (KRAS G12D); type: cell-based; conditions: pERK1/2, 2 days, read-out: PANC-1 (KRAS G12D) IC50
Sequence (P01116 1-188 isoform P01116-2 G12D): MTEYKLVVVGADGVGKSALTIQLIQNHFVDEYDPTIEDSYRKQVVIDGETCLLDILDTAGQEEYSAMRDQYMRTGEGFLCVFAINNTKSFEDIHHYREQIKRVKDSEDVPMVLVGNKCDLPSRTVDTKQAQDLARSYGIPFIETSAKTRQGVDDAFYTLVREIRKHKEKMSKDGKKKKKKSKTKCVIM
Readout: pIC50
The quantity pIC50 is defined as the negative base-10 logarithm of the molar concentration.

Cc1cc2[nH]ncc2c(-c2nc3c4c(nc(OC[C@@]56CCCN5C[C@H](F)C6)nc4c2F)N(C(C)c2cccnc2N)[C@@H](C)CO3)c1C(F)(F)F (stereo partly drawn) [Compound 312] : 9.52
Cc1cc2[nH]ncc2c(-c2nc3c4c(nc(OC[C@@]56CCCN5C[C@H](F)C6)nc4c2F)N(C(C)c2cccnc2N)[C@@H](C)CO3)c1Cl (stereo partly drawn) [Compound 313] : 8.52
Cc1c(F)c(N)cc(-c2nc3c4c(nc(OC[C@@]56CCCN5CC(F)(F)C6)nc4c2F)N(C(C)c2cccnc2N)CCO3)c1C(F)(F)F (stereo partly drawn) [Compound 171] : 7.57

I am curious: what pIC50 value has been reported for CC(c1cccnc1N)N1c2nc(OC[C@@H]3C[C@@H](F)CN3C)nc3c(F)c(-c4cc(O)cc5ccc(F)c(F)c45)nc(c23)OC[C@@H]1C (stereo partly drawn) [Compound 281] ?
9.00

---

molecular target: pERK1/2 (Thr202/Tyr204), PANC-1 (KRAS G121D) (Homo sapiens, UniProt P01116, G12D); construct: pERK1/2 HTRF read-out; experiment: Assay of intracellular pERK1/2 (Thr202/Tyr204) phosphorylation in PANC-1 cells (KRAS G12D); format: cell-based; conditions: pERK1/2, 2 days, read-out: PANC-1 (KRAS G12D) IC50
pIC50 reference
// pIC50 here means minus log10 of the molar concentration (mol/L)

Cc1cc2[nH]ncc2c(-c2nc3c4c(nc(OC[C@@]56CCCN5C[C@H](F)C6)nc4c2F)N([C@H](C)c2cc(F)cnc2N)[C@@H](C)CO3)c1C(F)(F)F : 9.52

We next turn to a different compound, shown below.
State its pIC50 on pERK1/2 (Thr202/Tyr204), PANC-1 (KRAS G121D) (Homo sapiens, UniProt P01116, G12D): [2H]C([2H])([2H])N1CCC[C@H]1COc1nc2c3c(nc(-c4cc(N)cc(C)c4C(F)(F)F)c(F)c3n1)OCCN2C(C)c1cccnc1N (single isomer, unassigned) [Compound 95]
7.62

---

target: pERK1/2 (Thr202/Tyr204), NCI-1H441 (KRAS G12V) (Homo sapiens, UniProt P01116, G12V); construct: pERK1/2 HTRF read-out; assay: Assay of intracellular pERK1/2 (Thr202/Tyr204) phosphorylation in NCI-H441 cells (KRAS G12V); format: cell-based; conditions: pERK1/2, 2 days, read-out: NCI-H441 (KRAS G12V) IC50
Sequence (P01116 1-188 isoform P01116-2 G12V): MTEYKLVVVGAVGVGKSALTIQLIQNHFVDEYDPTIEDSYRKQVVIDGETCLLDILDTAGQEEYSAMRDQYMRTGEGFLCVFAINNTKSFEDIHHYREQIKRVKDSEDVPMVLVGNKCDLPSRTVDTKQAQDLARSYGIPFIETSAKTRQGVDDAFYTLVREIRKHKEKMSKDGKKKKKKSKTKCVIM
Would you mind classing the entries by IC50? Ranges: low: < 0.4 nM; medium: ≥ 0.4 nM and < 6 nM; high: ≥ 6 nM

Cc1c(F)c(N)cc(-c2nc3c4c(nc(OCC56CC(F)CN5CC(F)C6)nc4c2F)N(C(C)c2cccnc2N)CCO3)c1C(F)(F)F (single isomer, unassigned; diastereomer 2) [Compound 242] : medium

Hello team, could you let me know which band the following compound falls into: CC(c1cccnc1N)N1CCOc2nc(-c3cc(O)cc(Cl)c3C3CC3)c(F)c3nc(OC[C@@H]4COCCN4C)nc1c23 (stereo partly shown)
high

Into which bin does this compound go? CC(c1cccnc1N)N1c2nc(OC[C@@]34CCCN3C[C@H](F)C4)nc3c(F)c(-c4c(C(F)(F)F)ccc5c4CCCN5)nc(c23)OC[C@@H]1C (single isomer, unassigned; diastereomer 2) [Compound 339]
high

In plain terms, what class is CC(c1cccnc1N)N1CCOc2nc(-c3cc(O)cc4ccc(F)c(F)c34)c(F)c3nc(OC[C@@]45CCCN4C/C(=C\F)C5)nc1c23 (stereo partly shown) ?
medium

Hello team, could you let me know which band the following compound falls into: [2H]C1([2H])Oc2nc(-c3cc(N)c(F)c(Cl)c3C(F)(F)F)c(F)c3nc(OC[C@@]45CCCN4C[C@H](F)C5)nc(c23)N(C(C)c2cccnc2N)C1([2H])[2H] (single isomer, unassigned) [Compound 206]
low

Category of CC(c1cccnc1N)N1CCOc2nc(-c3cc(O)cc(Cl)c3C(F)(F)F)c(F)c3nc(OC[C@@]45CCCN4C[C@H](F)C5)nc1c23 (single isomer, unassigned) [Compound 57] , please.
high

Class (by measured IC50) for CC(c1cccnc1N)N1CCOc2nc(-c3cc(O)cc4ccc(F)c(F)c34)c(F)c3nc(OC[C@@H]4CC(F)(F)CN4C)nc1c23 (single isomer, unassigned) [Compound 51]
medium

Which class holds [2H]C1([2H])CC[C@@]2(C([2H])([2H])Oc3nc4c5c(nc(-c6cc(N)cc(C)c6C(F)(F)F)c(F)c5n3)OCCN4C(C)c3cccnc3N)C[C@@H](F)CN12 (single isomer, unassigned) [Compound 115] ?
low

---

molecular target: pERK1/2 (Thr202/Tyr204), NCI-1H358 (KRAS G12C) (Homo sapiens, UniProt P01116, G12C); construct: pERK1/2 HTRF read-out; assay: Assay of intracellular pERK1/2 (Thr202/Tyr204) phosphorylation in NCI-H358 cells (KRAS G12C); type: cell-based; details: pERK1/2, 2 days, read-out: NCI-H358 (KRAS G12C) IC50
Readout: IC50 (nM)
# output: bare number, implied unit nM

CC(c1cccnc1N)N1CCOc2nc(-c3cc(O)cc(Cl)c3C(F)(F)F)c(F)c3nc(OC[C@@]45CCCN4C[C@H](F)C5)nc1c23 (single isomer, unassigned) [Compound 57] : 15
C[C@@H](c1cccnc1N)N1c2nc(OC[C@@]34CCCN3C[C@H](F)C4)nc3c(F)c(-c4c5ccccc5cc5[nH]ncc45)nc(c23)O[C@@H]2CCC[C@@H]21 : 676

// moving on: another record for IC50
For C[C@H](c1cccnc1N)N1c2nc(OC[C@@]34CCCN3C[C@H](F)C4)nc3c(F)c(-c4c5ccccc5cc5[nH]ncc45)nc(c23)O[C@@H]2CCC[C@@H]21 , what is its reported IC50?
65

---

molecular target: pERK1/2 (Thr202/Tyr204), PANC-1 (KRAS G121D) (Homo sapiens, UniProt P01116, G12D); construct: pERK1/2 HTRF read-out; assay: Assay of intracellular pERK1/2 (Thr202/Tyr204) phosphorylation in PANC-1 cells (KRAS G12D); format: cell-based; conditions: pERK1/2, 2 days, read-out: PANC-1 (KRAS G12D) IC50
pIC50 overview
Would you please state pIC50, meaning minus log10 of the concentration in mol/L, as a bare number?

Cc1cc(N)cc(-c2nc3c4c(nc(OC[C@@H]5C[C@@H](F)CN5C)nc4c2F)N(C(C)c2cccnc2N)[C@@H](C)CO3)c1C(F)(F)F (single isomer, unassigned) [Compound 282] : 8.52
Cc1cc(N)cc(-c2nc3c4c(nc(OC[C@@]56CCCN5C[C@H](F)C6)nc4c2F)N(C(C)c2cc(F)cnc2N)CCO3)c1C(F)(F)F (stereo partly drawn) : 8.15

Lab note: next compound to report on.
Identify the measured pIC50 of COc1ccc(C(F)(F)F)cc1-c1nc2c3c(nc(OC[C@@]45CCCN4C[C@H](F)C5)nc3c1F)N(C(C)c1cccnc1N)CCO2 (stereo partly drawn) for pERK1/2 (Thr202/Tyr204), PANC-1 (KRAS G121D) (Homo sapiens, UniProt P01116, G12D).
6.46

Where do these numbers come from? They come from patent US20260356851A1.
